test system: M14 melanoma; assay: NCI-60 one-dose screen, 48 h (100 = growth as untreated, 0 = no growth, -100 = all killed); settings: 10 µM unless noted
The panel holds about 83,000 compounds, 20% with a hit somewhere; the sample as a whole holds those more often.
Response key: TRUE means growth >= 40%; FALSE means growth < 40%.

Exercise: Assess whether reported growth for O=C(O)C(O)C(O)C1[O][Sb]([c]2ccc([N+](=O)[O-])cc2)[O]C1CO (stereo unspecified) sits at 40% or higher.
Key: TRUE

Exercise: Likewise for Cn1cc(-c2csc(-c3cn(CCCCN4CCCCC4)c4ccc(F)cc34)n2)c2cccnc21 ?
Key: FALSE

Exercise: Likewise for N#Cc1c(Br)n(C2OC(CO)C(O)C2O)c2ncnc(N)c12 (stereo unspecified) ?
Key: TRUE

Exercise: Likewise for O=[N+]([O-])c1cc([N+](=O)[O-])c(Cl)cc1Cl ?
Key: FALSE

Exercise: Likewise for Clc1cccc(Cl)c1Cl ?
Key: TRUE

====

test system: SK-MEL-28 melanoma; test: NCI-60 one-dose screen, 48 h (100 = growth as untreated, 0 = no growth, -100 = all killed); conditions: 10 µM unless noted
About 83,000 compounds went through this panel and 20% of them were active in at least one assay; those are over-represented in the sample as a whole.
quantityName: growth (%)
Report only the number, with the unit % understood.

Exercise: What value of growth has been reported for the following molecule? CC(=O)C(c1c(O)c2ccccc2oc1=O)c1cc(=O)oc2c1ccc1ccccc12 (centres undefined)
Key: 110

Exercise: Likewise for Nc1ccc(OCCNS(=O)(=O)c2cccc(S(=O)(=O)F)c2)c(Cl)c1 ?
Key: 88.8

Exercise: Likewise for CC(=O)O[C@@H]1CC[C@]2(C)[C@H]3CC[C@]4(C)C(=O)CC[C@H]4[C@@H]3C[C@@H]3SC(N)=N[C@@]32C1 ?
Key: 72.2

Exercise: Likewise for C=CCc1cc2c(cc1OCC)OCO2 ?
Key: 102

Exercise: Likewise for ClCCN(CCCl)c1ccc(-n2cnc3c(Cl)ncnc32)cc1 ?
Key: -10.5

Exercise: Likewise for CO[C@H]1CC[C@@]2(C)C(=CC[C@@H]3[C@@H]2CC[C@]2(C)C(=O)C(=O)C[C@@H]32)C1 ?
Key: 117

Exercise: Likewise for N/C(=N/N=C/c1ccncc1)N[N+](=O)[O-] ?
Key: 110

Exercise: Likewise for CCOC(=O)CCN(C)C1=Nc2ccc(Cl)cc2C(c2ccccc2)=[N+]([O-])C1 ?
Key: 121

Exercise: Likewise for CCOC(=O)[C@@H](C)C[C@H](Cc1ccccc1)NC(=O)c1csc([C@@H](C[C@H](C(C)C)N(C)C(=O)[C@@H](NC(=O)[C@H]2CCCCN2C)C(C)(C)CC)OC(C)=O)n1 ?
Key: 38.6

====

test system: SW-620 colon; assay: NCI-60 one-dose screen, 48 h; conditions: 10 µM unless noted
Compounds without any hit were thinned out: in the full panel of roughly 83,000, 20% have a hit. Calls of active or inactive are those of the source. Rule for the calls: active = growth percent below 10; inactive = the rest.
// classify into t (active), f (inactive)

Exercise: Hey, what did the test say about O=C(Nc1ccc([N+](=O)[O-])cc1)C(Cl)(Cl)Cl ?
Key: f

Exercise: Likewise for COc1cc([C@@H]2c3cc4c(cc3[C@H](OC(C)=O)[C@H]3COC(=O)[C@H]23)OCO4)cc(OC)c1OC ?
Key: f

Exercise: Likewise for CC(=O)OCC1O[C@@H]([S-])C(OC(C)=O)[C@H](OC(C)=O)[C@@H]1OC(C)=O.[Au+].c1ccc(CN2[CH-]N(Cc3ccccc3)C(c3ccccc3)=C2c2ccccc2)cc1 ?
Key: t

Exercise: Likewise for Cn1cc(C=O)c2nccnc21 ?
Key: f
